Can you tell me IC50 at 24 h for the items I'm about to list?
PROCEDURE_DETAILS: In vitro cytotoxicity, CCK-8 method
Format: cell-based
EXPERIMENTAL_SETUP: human, HEK293 cells, read-out: median inhibitory concentration (IC50), cytotoxicity
Answer in µM, number only, no unit symbol.

Answer with the recorded IC50 at 24 h for the compound listed here: C=C[C@]1(C)C[C@@H](OC(=O)COC(=O)/C=C/c2ccc(N(C)C)cc2)[C@]2(C)[C@H](C)CC[C@]3(CCC(=O)[C@H]32)[C@@H](C)[C@@H]1O
34.6

Answer with the recorded IC50 at 24 h for the compound listed here: C=C[C@]1(C)C[C@@H](OC(=O)COC(=O)/C=C/c2ccc(OC)cc2)[C@]2(C)[C@H](C)CC[C@]3(CCC(=O)[C@H]32)[C@@H](C)[C@@H]1O
90.2

Answer with the recorded IC50 at 24 h for the compound listed here: C=C[C@]1(C)C[C@@H](OC(=O)CSCCN(CC)CC)[C@]2(C)[C@H](C)CC[C@]3(CCC(=O)[C@H]32)[C@@H](C)[C@@H]1O [Tiamulin, reference compound]
84.9

Answer with the recorded IC50 at 24 h for the compound listed here: C=C[C@]1(C)C[C@@H](OC(=O)COC(=O)/C=C/c2cccc(C#N)c2)[C@]2(C)[C@H](C)CC[C@]3(CCC(=O)[C@H]32)[C@@H](C)[C@@H]1O
29.2
